procedure_details: HSE-luciferase reporter activators – cell-based (AID 1611)
study_conditions: human cells, HSE-luciferase heat shock reporter; stronger effect = higher value
outcome_measure: fold change
Number only, please.

Here's what some known entries look like.
compound	outcome_measure	observed_result
Cc1cccc(Nc2ccccc2C(=O)O)c1C	fold change	1.2
O=C(O)C1CCCNC1 (centres undefined)	fold change	0.81
NC(=O)c1ccc[n+]([C@@H]2O[C@H](COP(=O)([O-])OP(=O)(O)OC[C@H]3O[C@@H](n4cnc5c(N)ncnc54)[C@H](O)[C@@H]3O)[C@@H](O)[C@H]2O)c1	fold change	1.11
CCCC(CCC)C(=O)O	fold change	0.91

### Prompt Any idea what fold change was measured for NCCCC(N)CC(=O)NCC1NC(=O)C(CO)NC(=O)C(N)CNC(=O)C(C2CCN=C(N)N2)NC(=O)/C(=C/NC(N)=O)NC1=O (centres undefined) ?
### Response 0.59

### Prompt For "O=C(O)C1=CCNCC1" then?
### Response 1.18
